Endpoint summary: IC50, system: Collagenase 3 (Homo sapiens), multiple sources combined.

Some compounds with recorded IC50:
{"columns": ["MOLECULE", "IC50"],
 "data": [
  ["O=C(NCc1ccc(F)cc1)c1nc2sc3c(c2c(=O)[nH]1)CCC3", "< 100 nM"],
  ["O=C(NCc1ccc2occc2c1)c1nc2sc3c(c2c(=O)[nH]1)CCC3", "< 100 nM"],
  ["O=C(Cc1ccc2c(c1)CCO2)Nc1cc(C(=O)NCc2ccc(-c3nnn[nH]3)cc2)ncn1", "< 1000 nM"]
]}

Lookup: Kindly state the measured IC50 obtained for O=C1COc2ccc(CNC(=O)c3ncnc4nc[nH]c34)cc2N1 with Collagenase 3 (Homo sapiens).
Found: 101 to 20000 nM

Lookup: Query IC50 on Collagenase 3 (Homo sapiens) for Nc1c(N2CCc3ccc(CNC(=O)c4nc5sc6c(c5c(=O)[nH]4)CCCS6)cc3C2)c(=O)c1=O
Found: < 100 nM

Lookup: Request: IC50, test system Collagenase 3 (Homo sapiens), entry COC(=O)C1(CNC(=O)c2nc3sc4c(c3c(=O)[nH]2)CCC4)CCCCC1
Found: < 100 nM

###

From various publications: IC50 for Collagenase 3 (Homo sapiens).

{"columns": ["COMPOUND", "IC50"],
 "data": [
  ["Cc1ccc(CNC(=O)C2CCc3sc4nc(C(=O)NCc5ccc6c(c5)NC(=O)CO6)[nH]c(=O)c4c32)cc1 (stereo not shown)", "< 100 nM"],
  ["O=C(NO)[C@H]1CN(C(=O)Cc2cccnc2)CCN1S(=O)(=O)c1cc(F)c(Oc2ccc(Cl)cc2)c(F)c1", "< 50 nM"],
  ["O=C1COc2ccc(CNC(=O)c3nc4cc5ccccc5cc4c(=O)[nH]3)cc2N1", "100 to 20000 nM"],
  ["O=C1COc2ccc(CNC(=O)c3ncnc4c(NS(=O)(=O)Cc5ccccc5)c[nH]c34)cc2N1", "101 to 20000 nM"],
  ["COC(=O)c1cccc(CNC(=O)c2nc3sc4c(c3c(=O)[nH]2)CCC4)c1", "< 100 nM"]
]}

Lookup: Form: Entry = Cc1cc(COc2ccc(S(=O)(=O)N[C@]3(C)CCCC[C@@H]3C(=O)NO)cc2)c2ccccc2n1 (racemic) | System = Collagenase 3 (Homo sapiens) | IC50 = ____
Found: > 16700 nM

Lookup: Look up IC50 with Collagenase 3 (Homo sapiens) for this compound: CN(C)c1ccc2ccc(S(=O)(=O)N3CCN(S(=O)(=O)c4cc(F)c(Oc5ccc(Cl)cc5)c(F)c4)[C@@H](C(=O)NO)C3)cc2c1
Found: < 50 nM

###

// molecules with reported pIC50 on Collagenase 3 (Homo sapiens, UniProt P45452), multi-publication
Just the number, please; pIC50 means minus log10 of the concentration in mol/L.

{"columns": ["MOLECULE", "pIC50"],
 "data": [
  ["Cn1nc(C(=O)NCc2ccc(C(=O)O)cc2)cc1-c1ccc2[nH]c(C3=NCCO3)cc2c1", 7.37],
  ["COc1ccc(C2SC(CC(=O)NCc3ccco3)C(=O)N2C(Cc2ccc(OC(C)(C)C)cc2)C(=O)NO)cc1 (stereo not drawn)", 7.15],
  ["CC#CCOc1ccc(S(=O)(=O)CC2(C(=O)NO)CCN(C(C)=O)CC2)cc1", 6.42]
]}

Lookup: Query the reported pIC50 for Collagenase 3 (Homo sapiens, UniProt P45452); item: CNC(=O)[C@@H](NC(=O)[C@H](CC(C)C)NC(=O)[C@@H](S)CCCN1C(=O)c2ccccc2C1=O)C(C)(C)C
Found: 8.70

Lookup: Param readout= pIC50; system= Collagenase 3 (Homo sapiens, UniProt P45452); entry= O=C(CN1C(=O)C(Cc2ccc(Br)cc2)Sc2ccccc21)NO (stereo not drawn) ; returns value.
Found: 7.42

Lookup: Provide value of pIC50 for this record tested with Collagenase 3 (Homo sapiens, UniProt P45452): CC#CCOc1ccc(S(=O)(=O)CC2(C(=O)NO)CCN(C(=O)Oc3ccc(OC)cc3)CC2)cc1
Found: 6.75

Lookup: Test system Collagenase 3 (Homo sapiens, UniProt P45452); read-out pIC50; what value for CC(C)[C@H](NS(=O)(=O)c1ccc2oc3cc(-c4ccccc4)ccc3c2c1)C(=O)O ?
Found: 6.16

Lookup: Give recorded pIC50 with Collagenase 3 (Homo sapiens, UniProt P45452) for the following molecule: CNC(=O)[C@@H](NC(=O)c1ccc(-c2ccc(NC(=O)c3ccnn3C)cc2)o1)C1CCCCC1
Found: 7.00
